test system: H1975; experiment: Impedance-based TCRP of H1975 cells, constitutive EGFR activation; assay type: cell-based; conditions: Homo sapiens, NCI-H1975, 72 h, read-out: IC50 (TCRP, constitutive activation)
Endpoint name: IC50 (µM)
Field: numeric (µM). Do not append units.

Give its IC50 value. Item: C=CC(=O)Nc1cc2c(Nc3ccc(F)c(Cl)c3)ncnc2cc1OCCCN1CCOCC1 [Canertinib] 0.396
